Kindly state Predicted in vivo CLbile, int, Mean for each of the entries shown.
system: sandwich-cultured PXB-cells; settings: human, 5 min, 1 μM
# value in mL/min; strip the unit string

[Q] Form entry - test system: sandwich-cultured PXB-cells; read-out: Predicted in vivo CLbile, int, Mean; compound: `CN/C(=N/CCSCc1nc[nH]c1C)NC#N`
[A] 478

[Q] Lab note: need Predicted in vivo CLbile, int, Mean for CN(Cc1cnc2nc(N)nc(N)c2n1)c1ccc(C(=O)N[C@@H](CCC(=O)O)C(=O)O)cc1 [Methotrexate, methotrexate] on sandwich-cultured PXB-cells, anyone have it?
[A] 179

[Q] Missing value: Predicted in vivo CLbile, int, Mean, sandwich-cultured PXB-cells, entry `CCOc1ccc2ccccc2c1C(=O)N[C@@H]1C(=O)N2[C@@H]1SC(C)(C)[C@@H]2C(=O)O` . Fill in?
[A] 1026

[Q] Entry `CC[C@H]1OC(=O)[C@H](C)[C@@H](O[C@H]2C[C@@](C)(OC)[C@@H](O)[C@H](C)O2)[C@H](C)[C@@H](O[C@@H]2O[C@H](C)C[C@H](N(C)C)[C@H]2O)[C@](C)(O)C[C@@H](C)C(=O)[C@H](C)[C@@H](O)[C@]1(C)O` , system sandwich-cultured PXB-cells: what Predicted in vivo CLbile, int, Mean was measured?
[A] 289

[Q] Give sandwich-cultured PXB-cells Predicted in vivo CLbile, int, Mean for `CC[C@]1(O)C[C@H]2CN(CCc3c([nH]c4ccccc34)[C@@](C(=O)OC)(c3cc4c(cc3OC)N(C=O)[C@H]3[C@@](O)(C(=O)OC)[C@H](OC(C)=O)[C@]5(CC)C=CCN6CC[C@]43[C@@H]65)C2)C1`
[A] 199

[Q] Checklist item: Predicted in vivo CLbile, int, Mean tested on sandwich-cultured PXB-cells, entry `C[C@H]1O[C@@H](O[C@H]2[C@@H](O)C[C@H](O[C@H]3[C@@H](O)C[C@H](O[C@H]4CC[C@@]5(C)[C@H](CC[C@@H]6[C@@H]5C[C@@H](O)[C@]5(C)[C@@H](C7=CC(=O)OC7)CC[C@]65O)C4)O[C@@H]3C)O[C@@H]2C)C[C@H](O)[C@@H]1O` , value?
[A] 410

* * *

test system: sandwich-cultured PXB-cells; settings: human, 10 min, 1 μM
Label T when BEI (%) Mean is at or above 20%; otherwise label F.

[Q] Has `CC[C@H]1OC(=O)[C@H](C)[C@@H](O[C@H]2C[C@@](C)(OC)[C@@H](O)[C@H](C)O2)[C@H](C)[C@@H](O[C@@H]2O[C@H](C)C[C@H](N(C)C)[C@H]2O)[C@](C)(O)C[C@@H](C)C(=O)[C@H](C)[C@@H](O)[C@]1(C)O` a recorded BEI (%) Mean greater than or equal to 20%?
[A] T

[Q] # bool: BEI (%) Mean of `C[C@H]1O[C@@H](O[C@H]2[C@@H](O)C[C@H](O[C@H]3[C@@H](O)C[C@H](O[C@H]4CC[C@@]5(C)[C@H](CC[C@@H]6[C@@H]5C[C@@H](O)[C@]5(C)[C@@H](C7=CC(=O)OC7)CC[C@]65O)C4)O[C@@H]3C)O[C@@H]2C)C[C@H](O)[C@@H]1O` >= 20%
[A] T

[Q] Evaluate CN(Cc1cnc2nc(N)nc(N)c2n1)c1ccc(C(=O)N[C@@H](CCC(=O)O)C(=O)O)cc1 [Methotrexate, methotrexate] : BEI (%) Mean at minimum 20%?
[A] F

[Q] In plain terms: is recorded BEI (%) Mean at least 20% for `CCOc1ccc2ccccc2c1C(=O)N[C@@H]1C(=O)N2[C@@H]1SC(C)(C)[C@@H]2C(=O)O` ?
[A] T

[Q] Does `CC[C@]1(O)C[C@H]2CN(CCc3c([nH]c4ccccc34)[C@@](C(=O)OC)(c3cc4c(cc3OC)N(C=O)[C@H]3[C@@](O)(C(=O)OC)[C@H](OC(C)=O)[C@]5(CC)C=CCN6CC[C@]43[C@@H]65)C2)C1` have a reported BEI (%) Mean of at least 20%?
[A] T

Measured values drawn from paper PMC10444810 for this set.
